Molecular target: rTas1r2-hTAS1R3 (UniProt Q7RTX0+Q9Z0R7)
Sequence (Q9Z0R7 20-843): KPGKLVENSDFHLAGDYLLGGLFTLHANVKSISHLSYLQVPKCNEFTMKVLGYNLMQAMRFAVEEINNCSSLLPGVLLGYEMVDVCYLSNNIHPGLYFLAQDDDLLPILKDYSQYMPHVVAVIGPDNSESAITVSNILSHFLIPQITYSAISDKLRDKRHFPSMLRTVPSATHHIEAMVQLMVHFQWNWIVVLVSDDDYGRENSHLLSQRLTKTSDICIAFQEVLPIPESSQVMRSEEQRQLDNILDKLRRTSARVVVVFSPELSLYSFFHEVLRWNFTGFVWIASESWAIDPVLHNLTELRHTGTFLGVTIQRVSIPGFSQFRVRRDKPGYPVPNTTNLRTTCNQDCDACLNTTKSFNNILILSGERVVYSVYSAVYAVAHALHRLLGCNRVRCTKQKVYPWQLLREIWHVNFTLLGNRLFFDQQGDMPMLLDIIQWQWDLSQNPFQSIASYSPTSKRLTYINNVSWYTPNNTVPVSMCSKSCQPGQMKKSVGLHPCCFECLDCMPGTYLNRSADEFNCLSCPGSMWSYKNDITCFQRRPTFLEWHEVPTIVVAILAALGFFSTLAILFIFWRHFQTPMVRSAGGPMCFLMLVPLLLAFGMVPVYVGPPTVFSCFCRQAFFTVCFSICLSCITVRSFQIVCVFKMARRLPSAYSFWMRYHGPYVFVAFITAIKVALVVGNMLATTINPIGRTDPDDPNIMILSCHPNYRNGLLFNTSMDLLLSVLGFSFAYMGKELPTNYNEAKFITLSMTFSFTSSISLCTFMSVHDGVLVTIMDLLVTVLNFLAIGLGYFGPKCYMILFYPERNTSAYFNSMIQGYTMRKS
Sequence (Q7RTX0 21-852): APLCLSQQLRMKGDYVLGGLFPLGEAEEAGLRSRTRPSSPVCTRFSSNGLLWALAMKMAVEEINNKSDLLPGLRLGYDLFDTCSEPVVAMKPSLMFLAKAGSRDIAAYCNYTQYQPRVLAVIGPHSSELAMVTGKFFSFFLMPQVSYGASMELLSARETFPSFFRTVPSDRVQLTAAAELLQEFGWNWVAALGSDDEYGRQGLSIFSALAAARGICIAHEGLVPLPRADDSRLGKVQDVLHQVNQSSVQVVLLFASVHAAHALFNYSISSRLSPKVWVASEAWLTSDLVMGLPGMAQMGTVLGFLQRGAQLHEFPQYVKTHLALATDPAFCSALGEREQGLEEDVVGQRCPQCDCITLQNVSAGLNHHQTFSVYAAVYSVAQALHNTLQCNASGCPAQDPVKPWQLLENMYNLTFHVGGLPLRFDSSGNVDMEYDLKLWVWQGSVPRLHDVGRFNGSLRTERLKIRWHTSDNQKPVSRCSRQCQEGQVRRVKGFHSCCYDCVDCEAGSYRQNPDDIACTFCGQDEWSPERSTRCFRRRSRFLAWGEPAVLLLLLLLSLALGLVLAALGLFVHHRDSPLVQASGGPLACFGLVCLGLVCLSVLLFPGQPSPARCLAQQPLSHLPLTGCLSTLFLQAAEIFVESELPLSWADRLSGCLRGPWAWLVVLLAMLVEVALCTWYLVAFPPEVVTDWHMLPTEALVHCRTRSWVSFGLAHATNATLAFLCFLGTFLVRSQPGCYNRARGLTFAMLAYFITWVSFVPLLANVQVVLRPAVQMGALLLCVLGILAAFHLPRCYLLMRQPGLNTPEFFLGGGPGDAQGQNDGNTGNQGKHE
Experiment: Calcium mobilization (FLIPR), interspecies combination
Settings: asp 15 mM; cyc 30 mM; neo 0.1 mM; sac 10 mM; suc 100 mM; stev 1 mM; markedly reduced amplitudes
Where a SMILES comes first, the peptide text is derived from it.
property: activation of receptor (calcium response)

OC[C@H]1O[C@@](CO)(O[C@H]2O[C@H](CO)[C@@H](O)[C@H](O)[C@H]2O)[C@@H](O)[C@@H]1O ... failed to activate
O=S(=O)(O)NC1CCCCC1 [cyclamate] ... clearly responded
COc1ccc(CCC(=O)c2c(O)cc(O[C@@H]3O[C@H](CO)[C@@H](O)[C@H](O)[C@H]3O[C@@H]3O[C@@H](C)[C@H](O)[C@@H](O)[C@H]3O)cc2O)cc1O [neohesperidine dihydrochalcone] ... clearly responded
C=C1C[C@@]23CC[C@H]4[C@@](C)(CCC[C@@]4(C)C(=O)O[C@@H]4O[C@H](CO)[C@@H](O)[C@H](O)[C@H]4O)[C@@H]2CC[C@]1(O[C@@H]1O[C@H](CO)[C@@H](O)[C@H](O)[C@H]1O[C@@H]1O[C@H](CO)[C@@H](O)[C@H](O)[C@H]1O)C3 [stevioside] ... failed to activate

*Q* Hi! What's the reported activation of receptor (calcium response) for COC(=O)[C@H](Cc1ccccc1)NC(=O)[C@@H](N)CC(=O)O [aspartame] (HELM PEPTIDE1{D.F.[CO[*:1]]}$$$$V2.0) on rTas1r2-hTAS1R3 (UniProt Q7RTX0+Q9Z0R7)?
*A* failed to activate

The values you see were collected from paper PMC1084349.
